From: ChEMBL document CHEMBL6177980

Experiment: Stability of compound at pH 6.8 assessed as change in purity at 1 mg/ml incubated for 24 hrs by HPLC analysis
Format: physicochemical
Settings: buffer, pH 6.8, 24 h
attribute.measured: Activity (%)
Only the number, expressed in %, is required.

Supply recorded Activity for CC(C)C(=O)OC[C@@]1(F)O[C@@H](n2ccc(=O)n(COC(=O)[C@@H](N)C(C)C)c2=O)[C@H](OC(=O)C(C)C)[C@@H]1OC(=O)C(C)C.Cl here.
-98.1

Supply recorded Activity for CC(C)C(=O)OC[C@@]1(F)O[C@@H](n2ccc(=O)n(COC(=O)[C@@H]3CCCN3C)c2=O)[C@H](OC(=O)C(C)C)[C@@H]1OC(=O)C(C)C.Cl here.
-95

Supply recorded Activity for CC(C)C(=O)OCn1c(=O)ccn([C@@H]2O[C@](F)(COC(=O)C(C)C)[C@@H](OC(=O)C(C)C)[C@H]2OC(=O)C(C)C)c1=O here.
-1.8

Supply recorded Activity for CC(C)C(=O)OC[C@@]1(F)O[C@@H](n2ccc(=O)n(COC(=O)[C@@H]3CCCN3)c2=O)[C@H](OC(=O)C(C)C)[C@@H]1OC(=O)C(C)C.Cl here.
-30.6

Supply recorded Activity for CC(C)C(=O)OCn1c(=O)ccn([C@@H]2O[C@](F)(COC(=O)C(C)C)[C@@H](O)[C@H]2O)c1=O here.
-4.1

New cases:
Supply recorded Activity for CC(=O)OC[C@@]1(F)O[C@@H](n2ccc(=O)n(COC(=O)c3cccnc3)c2=O)[C@H](OC(C)=O)[C@@H]1OC(C)=O here.
-8.6

Supply recorded Activity for CC(C)C(=O)OC[C@@]1(F)O[C@@H](n2ccc(=O)n(COC(=O)c3cccnc3)c2=O)[C@@H]2OC(=O)O[C@@H]21 here.
-88.3
